Molecular target: delta-5-desaturase (Rattus norvegicus)
Construct: the microsomal fraction of a rat river (10 μl), which had been diluted to 3 mg/ml; from tissue; host or cells: rat liver microsomal fraction
Test: Inhibitory activity on delta-5-desaturase (rat liver microsomal fraction, 14C-eicosatrienoic acid, TLC)
Type: biochemical
Conditions: test compound at 10 μM, room temperature, 120 minutes
Procedure: An inhibitory activity of a test compound on delta-5-desaturase was measured according to the method described herein below. To a DMSO solution of the test compound which had been previously prepared, secondary dilution was carried out by using a buffer (300 mM NaH2PO4 [pH 7.4], 450 mM KCl, 30 mM NaF, 9 mM MgCl2, 4.5 mM glutathione [reduced form], 0.3% BSA [fatty acid free, SIGMA]). […]
I'd appreciate it if you could supply inhibition at 10 µM values for the items below.
Answers are plain numbers, in %.

Solved entries (count: 3):
SUBSTANCE_SMILES	inhibition at 10 µM / %
CCOc1nc2c(c(=O)n1-c1ccc(OCC(F)(F)C(F)(F)F)cc1)CC(=O)N2	94
CC(C)CCOc1ccc(-n2c(SCCCC(=O)NCCC#N)nc3cc[nH]c3c2=O)cc1	102
O=C(CCCSc1nc2cc[nH]c2c(=O)n1-c1ccc(OCC(F)(F)F)cc1)NC1CC1	99

Give inhibition at 10 µM for each of the items listed below.
1. N#CCCNC(=O)CCCSc1nc2[nH]ccc2c(=O)n1-c1ccc(OCCCC(F)(F)F)cc1
2. O=c1c2cc[nH]c2nc(SC(F)(F)F)n1-c1ccc(OCC(F)(F)F)cc1
3. O=C(CCCSc1nc2cc[nH]c2c(=O)n1-c1ccc(OCC(F)(F)F)cc1)N1CCC(O)CC1
4. CC(C)Oc1nc2c(c(=O)n1-c1ccc(OCC(F)(F)C(F)(F)F)cc1)CC(=O)N2

1: 100; 2: 98; 3: 100; 4: 99

* * *

Molecular target: delta-5-desaturase (Rattus norvegicus, UniProt Q920R3)
Construct: the microsomal fraction of a rat river (10 μl), which had been diluted to 3 mg/ml; from tissue; host or cells: rat liver microsomal fraction
Sequence (Q920R3 whole entry): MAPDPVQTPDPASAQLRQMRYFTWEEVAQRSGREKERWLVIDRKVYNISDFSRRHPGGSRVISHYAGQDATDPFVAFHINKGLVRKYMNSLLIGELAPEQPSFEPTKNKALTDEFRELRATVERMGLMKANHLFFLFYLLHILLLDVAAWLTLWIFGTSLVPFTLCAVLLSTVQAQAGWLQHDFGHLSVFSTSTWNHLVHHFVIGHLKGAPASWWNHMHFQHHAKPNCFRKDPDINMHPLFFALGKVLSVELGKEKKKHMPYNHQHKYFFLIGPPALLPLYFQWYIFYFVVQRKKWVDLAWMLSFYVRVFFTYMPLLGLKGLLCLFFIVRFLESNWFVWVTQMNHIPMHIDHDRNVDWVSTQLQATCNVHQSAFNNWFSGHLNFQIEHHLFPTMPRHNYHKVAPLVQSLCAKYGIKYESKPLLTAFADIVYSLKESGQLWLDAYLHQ
Assay: Inhibitory activity on delta-5-desaturase (rat liver microsomal fraction, 14C-eicosatrienoic acid, TLC)
Type: biochemical
Conditions: test compound at 10 μM, room temperature, 120 minutes
MEASUREMENT_KIND: inhibition at 10 µM (%)
Answers are plain numbers, in %.

COMPOUND	inhibition at 10 µM / %
CCSc1nc2[nH]ccc2c(=O)n1-c1ccc(OCC(F)(F)F)cc1	103
O=C(CCCSc1nc2cc[nH]c2c(=O)n1-c1ccc(OCC(F)(F)F)cc1)N1CCC(O)C1 (stereo not shown)	100

Give inhibition at 10 µM for each of the items listed below.
1. O=c1c2cc[nH]c2nc(SCCO)n1-c1ccc(OCC(F)(F)F)cc1
2. N#CCCNC(=O)CCCSc1nc2cc[nH]c2c(=O)n1-c1ccc(OCC2CCC2)cc1
3. N#CCCNC(=O)CCCSc1nc2[nH]ccc2c(=O)n1-c1ccc(OCCC(F)(F)F)cc1
4. CCOCCSc1nc2cc[nH]c2c(=O)n1-c1ccc(OCC(F)(F)F)cc1
5. O=c1c2[nH]ccc2nc(SCCO)n1-c1ccc(OCC2CC2)cc1
6. O=C1Cc2c(nc(OCC(F)(F)C(F)(F)F)n(-c3ccc(OCC(F)(F)F)cc3)c2=O)N1
7. O=c1c2cc[nH]c2nc(SC2CC2)n1-c1ccc(OCC(F)(F)F)cc1

[101, 101, 105, 101, 101, 102, 104]

Give inhibition at 10 µM for each of the items listed below.
1. O=c1c2[nH]ccc2nc(SCCN2CCOCC2)n1-c1ccc(OCC(F)(F)F)cc1
2. CC(C)(O)CCCSc1nc2cc[nH]c2c(=O)n1-c1ccc(OCC(F)(F)F)cc1
3. O=c1c2[nH]ccc2nc(SCCCS(=O)(=O)N2CCOCC2)n1-c1ccc(OCC(F)(F)F)cc1
4. CCSc1nc2c(c(=O)n1-c1ccc(OCC(F)(F)F)c(F)c1)CC(=O)N2
5. COCCCSc1nc2cc[nH]c2c(=O)n1-c1ccc(OCC(F)(F)F)cc1
6. CCSc1nc2c(c(=O)n1-c1ccc(OCC(F)F)cc1)CC(=O)N2

98
101
102
99
107
99

Give inhibition at 10 µM for each of the items listed below.
1. CCOc1nc2[nH]ccc2c(=O)n1-c1ccc(OCC(F)(F)F)cc1
2. N#CCCNC(=O)CSc1nc2c(c(=O)n1-c1ccc(OCC(F)(F)F)cc1)CC(=O)N2
3. CS(=O)(=O)CCCSc1nc2c(c(=O)n1-c1ccc(OCC3CC3)cc1)CC(=O)N2

[99, 97, 99]

Give inhibition at 10 µM for each of the items listed below.
1. CCSc1nc2[nH]ccc2c(=O)n1-c1ccc(OCC(F)(F)C(F)(F)F)cc1
2. CCOCCSc1nc2cc[nH]c2c(=O)n1-c1ccc(OCC2CC2)cc1
3. CC(C)(O)CNC(=O)CCCSc1nc2cc[nH]c2c(=O)n1-c1ccc(OCC(F)(F)F)cc1
4. CC(C)CSc1nc2c(c(=O)n1-c1ccc(OCC(F)(F)F)cc1)CC(=O)N2
5. O=C1Cc2c(nc(OCC(F)(F)F)n(-c3ccc(OCC(F)(F)C(F)(F)F)cc3)c2=O)N1
6. CC(CCSc1nc2cc[nH]c2c(=O)n1-c1ccc(OCC(F)(F)F)cc1)C(=O)NCCC#N (stereo not shown)
7. CSc1nc2c(c(=O)n1-c1ccc(OCC(F)(F)F)cc1)CC(=O)N2
8. CC(C)OCCCSc1nc2cc[nH]c2c(=O)n1-c1ccc(OCC(F)(F)F)cc1

[100, 101, 94, 102, 99, 99, 100, 99]
